Biological target: T1, cynomolgus monkey BCMA (cynomolgus monkey, UniProt A0A2K5UD97 1-53)
T1 construct: Soluble analyte in SPR; construct not described; also called cyBCMA; Cyno BCMA
T1 sequence (A0A2K5UD97 entry or part of it): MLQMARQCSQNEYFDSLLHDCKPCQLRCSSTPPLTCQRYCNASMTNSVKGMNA
Assay: SPR, IgG on chip, cyBCMA analyte, 37C
The class of a record is decided solely by its measured koff; consult group 1 (below 0.003 s⁻¹), group 2 (0.003 s⁻¹ to below 0.004 s⁻¹), group 3 (0.004 s⁻¹ or more)

Lookup: Given L3.PY/L1.FF/H2.DY (antibody, V domains shown, IgG) VH: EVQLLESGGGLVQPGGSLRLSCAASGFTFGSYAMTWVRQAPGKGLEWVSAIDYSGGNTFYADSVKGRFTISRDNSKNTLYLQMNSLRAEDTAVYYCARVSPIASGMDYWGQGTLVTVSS VL: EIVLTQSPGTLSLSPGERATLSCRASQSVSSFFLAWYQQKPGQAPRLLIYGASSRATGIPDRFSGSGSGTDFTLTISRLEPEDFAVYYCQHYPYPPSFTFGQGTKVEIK , name the class its koff places it in.
Found: group 3

Lookup: Kindly identify the class of L3.PY/L3.KF/H3.AE (antibody, V domains shown, IgG) VH: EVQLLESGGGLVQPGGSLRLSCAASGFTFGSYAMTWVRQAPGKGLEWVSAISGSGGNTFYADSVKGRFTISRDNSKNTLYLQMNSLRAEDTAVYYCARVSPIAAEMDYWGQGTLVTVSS VL: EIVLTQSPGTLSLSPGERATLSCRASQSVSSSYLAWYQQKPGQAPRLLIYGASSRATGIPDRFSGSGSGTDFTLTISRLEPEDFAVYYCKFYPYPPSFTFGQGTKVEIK .
Found: group 3

Lookup: Which class is correct for the following binder? L3.PY/L1.FF/H2.YQ (antibody, V domains shown, IgG) VH: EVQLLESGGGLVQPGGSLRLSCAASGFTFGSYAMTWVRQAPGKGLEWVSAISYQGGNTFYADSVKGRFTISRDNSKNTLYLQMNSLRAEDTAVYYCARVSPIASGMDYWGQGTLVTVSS VL: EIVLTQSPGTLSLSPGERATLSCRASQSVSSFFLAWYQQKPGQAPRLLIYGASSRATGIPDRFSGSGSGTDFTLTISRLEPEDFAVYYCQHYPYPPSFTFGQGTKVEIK
Found: group 2

Lookup: Please classify: L3.PY/L3.KY/H2.DY (antibody, V domains shown, IgG) VH: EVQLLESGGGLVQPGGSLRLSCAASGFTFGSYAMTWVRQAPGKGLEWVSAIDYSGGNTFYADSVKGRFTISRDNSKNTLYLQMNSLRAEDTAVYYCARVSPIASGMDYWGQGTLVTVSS VL: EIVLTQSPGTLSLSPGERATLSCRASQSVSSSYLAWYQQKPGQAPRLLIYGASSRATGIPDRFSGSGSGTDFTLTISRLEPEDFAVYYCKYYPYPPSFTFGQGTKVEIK
Found: group 1

Lookup: The entry to classify is L3.PY/L3.KF/H2.QL (antibody, V domains shown, IgG) VH: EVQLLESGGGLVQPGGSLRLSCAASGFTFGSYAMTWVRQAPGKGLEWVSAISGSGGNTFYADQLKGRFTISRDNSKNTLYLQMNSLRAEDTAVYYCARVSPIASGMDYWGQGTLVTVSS VL: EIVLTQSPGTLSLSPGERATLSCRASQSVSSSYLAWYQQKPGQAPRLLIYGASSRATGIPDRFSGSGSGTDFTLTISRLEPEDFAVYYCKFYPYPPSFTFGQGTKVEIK ; which class holds it?
Found: group 2

Lookup: Could you tell me which band L3.PY/L1.PH/H2.HA (antibody, V domains shown, IgG) VH: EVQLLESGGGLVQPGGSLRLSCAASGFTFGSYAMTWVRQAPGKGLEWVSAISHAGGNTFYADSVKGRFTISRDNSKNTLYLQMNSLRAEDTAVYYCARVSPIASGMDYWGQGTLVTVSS VL: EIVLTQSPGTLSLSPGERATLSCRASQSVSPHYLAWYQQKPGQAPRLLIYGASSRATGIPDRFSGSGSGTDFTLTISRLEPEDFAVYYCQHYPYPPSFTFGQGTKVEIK belongs to?
Found: group 3

Lookup: In plain terms, what class is L3.PY/L1.FF/H2.LT (antibody, V domains shown, IgG) VH: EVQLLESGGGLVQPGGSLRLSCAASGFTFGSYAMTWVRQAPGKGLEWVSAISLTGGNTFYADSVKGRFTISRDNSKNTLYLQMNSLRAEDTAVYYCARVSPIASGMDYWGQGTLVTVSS VL: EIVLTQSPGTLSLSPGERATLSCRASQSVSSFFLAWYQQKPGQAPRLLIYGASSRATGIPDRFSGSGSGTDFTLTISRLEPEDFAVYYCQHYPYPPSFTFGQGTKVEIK ?
Found: group 2

Lookup: GET /class?item= L3.PY/L3.KF/H2.LT (antibody, V domains shown, IgG) VH: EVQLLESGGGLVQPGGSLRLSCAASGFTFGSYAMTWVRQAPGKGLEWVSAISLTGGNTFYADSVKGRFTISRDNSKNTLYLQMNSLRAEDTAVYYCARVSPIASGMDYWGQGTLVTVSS VL: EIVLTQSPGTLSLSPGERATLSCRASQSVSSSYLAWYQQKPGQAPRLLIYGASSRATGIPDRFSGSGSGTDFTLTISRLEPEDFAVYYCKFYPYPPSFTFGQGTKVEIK
Found: group 3

Lookup: Category lookup for the binder L3.PY/L3.KY/H3.TAQ (antibody, V domains shown, IgG) VH: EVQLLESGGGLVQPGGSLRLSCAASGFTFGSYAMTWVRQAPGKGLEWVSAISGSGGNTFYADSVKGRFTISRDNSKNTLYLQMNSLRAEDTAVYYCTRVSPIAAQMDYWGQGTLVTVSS VL: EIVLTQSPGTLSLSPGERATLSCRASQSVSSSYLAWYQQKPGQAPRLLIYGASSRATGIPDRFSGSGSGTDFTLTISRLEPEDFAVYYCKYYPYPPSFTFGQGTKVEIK
Found: group 1

The origin of these recorded values is patent US20190241669A1.
